# assayedSystem: Intestinal alkaline phosphatase (Alpi) [Mus musculus]
# assayText: inhibitors of murine Alpi enzyme – biochemical, ortholog specificity, luminescence, selectivity assay for human IAP inhibitor project, SAR follow-up (AID 493142)
# measurementConditions: Purified mouse IAP, CDP-Star luminescence, 30 min
Calls of active or inactive are those of the source.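 The calls were made as follows: active = mean IC50 below 100 µM; inactive = the rest.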
Outcome codes: yes for active, no for inactive

{"columns": ["smilesNotation", "label"],
 "data": [
  ["O=S(=O)(c1ccc(NC(=S)N/N=C/c2ccc(O)c(O)c2O)cc1)N1CCOCC1", "yes"],
  ["Oc1ccc(-c2csc(Nc3ccccc3)n2)c(O)c1", "no"],
  ["O=[N+]([O-])c1ccccc1NC(=S)NN=Cc1ccc(O)c(O)c1", "yes"],
  ["Cc1ccc(Nc2nc(-c3ccc(O)cc3O)cs2)cc1F", "no"],
  ["COc1ccc(-c2csc(Nc3cccc4ccccc34)n2)cc1F", "no"],
  ["Cc1cccc(NC(=S)NNC(=O)c2ccc3c(c2)OCO3)c1", "yes"]
]}

====

# assayedSystem: Intestinal alkaline phosphatase (Alpi) [Mus musculus]
# assayText: inhibitors of murine Alpi enzyme – biochemical, ortholog specificity, luminescence, selectivity assay for human IAP inhibitor project, SAR follow-up (AID 493142)
# measurementConditions: Purified mouse IAP, CDP-Star luminescence, 30 min
Activity calls are given as the source filed them.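 The calls were made as follows: active = mean IC50 below 100 µM; inactive = the rest.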
Outcome codes: class 1 for active, class 0 for inactive

{"columns": ["molecule", "label"],
 "data": [
  ["CCOc1cc(C=N/N=C2/NC(=O)C(CC(=O)O)S2)ccc1OCc1ccccc1Cl (stereo unspecified)", "class 0"],
  ["COc1cc(C(=O)NNC(=S)Nc2ccc(S(N)(=O)=O)cc2)cc(OC)c1OC", "class 0"],
  ["COc1ccc(C=Nn2c(=S)n(C)c3ccccc32)cc1OC", "class 0"],
  ["COc1cc([N+](=O)[O-])ccc1NC(=S)NNC(=O)c1ccc2c(c1)OCO2", "class 1"],
  ["NS(=O)(=O)c1ccc(Nc2nc(-c3ccc(O)cc3O)cs2)cc1", "class 1"],
  ["COc1cc(/C=N/N=C2\\NC(=O)C(CC(=O)O)S2)cc(OC)c1OC (stereo unspecified)", "class 0"],
  ["COc1ccc(/C=N/N=C2/NC(=O)C(CC(=O)O)S2)cc1OC (stereo unspecified)", "class 0"],
  ["Cc1ccc(Nc2nc(-c3ccc(O)c(C(N)=O)c3)cs2)cc1", "class 0"],
  ["COC(=O)/C=C1\\S/C(=N/N=C/CC(=O)OC)NC1=O", "class 0"],
  ["COc1ccc(C=NN=C2SC(CC(=O)O)C(=O)N2c2ccc(O)cc2)cc1 (stereo unspecified)", "class 0"],
  ["COc1ccc(C(=O)NNC(=S)NC2CCCCC2)cc1OC", "class 1"]
]}

====

# assayedSystem: Intestinal alkaline phosphatase (Alpi) [Mus musculus]
# assayText: inhibitors of murine Alpi enzyme – biochemical, ortholog specificity, luminescence, selectivity assay for human IAP inhibitor project, SAR follow-up (AID 493142)
# measurementConditions: Purified mouse IAP, CDP-Star luminescence, 30 min
Calls of active or inactive are those of the source.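 How the source made its calls: active means mean IC50 below 100 µM; inactive means the rest.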
Outcome codes: True (active), False (inactive)

{"columns": ["smilesNotation", "label"],
 "data": [
  ["Oc1ccc(Nc2nc(-c3ccc(O)c(O)c3)cs2)cc1", "True"],
  ["COc1ccc(-c2csc(Nc3cccc4ccccc34)n2)cc1", "False"],
  ["COC(=O)/C=C1/S/C(=N/NC(=O)c2ccccc2)NC1=O", "False"],
  ["COc1cc(C=NNC(=S)Nc2cccc(C(=O)O)c2)ccc1O", "False"],
  ["O=S(=O)(Nc1ncccn1)c1ccc(NC(=S)NCCC(c2ccccc2)c2ccccc2)cc1", "False"],
  ["Oc1ccc(-c2csc(Nc3ccc(F)cc3)n2)cc1O", "True"]
]}
